Biological target: Human BTK enzyme, wild-type (Homo sapiens (Human), UniProt Q06187)
QUANTITY_KIND: IC50 (nM)

>>> experimental_result("Cc1cc(-c2cc(Nc3ccc(N4CCN(CCc5ccc(N6CCC(=O)NC6=O)cc5)C[C@@H]4C)cc3)ncn2)ccc1[C@@H](C)NC(=O)c1nc(C(C)(C)C)no1")
0.496
>>> experimental_result("Cc1cc(-c2cc(Nc3ccc(N4CCN(CCc5ccc(N6CCC(=O)NC6=O)cc5)C[C@H]4C)cn3)ncn2)ccc1[C@@H](C)NC(=O)c1nc(C(C)(C)C)no1")
0.128
>>> experimental_result("CC[C@H]1CN(CCc2ccc(N3CCC(=O)NC3=O)cc2)CCN1c1ccc(Nc2cc(-c3ccc([C@@H](C)NC(=O)c4nc(C(C)(C)C)no4)c(C)c3)ncn2)nc1")
0.0403
>>> experimental_result("Cc1cc(-c2cc(Nc3ccc(CCN4CCN(c5ccc(N6CCC(=O)NC6=O)cc5)CC4)cn3)ncn2)ccc1[C@@H](C)NC(=O)c1nc(C(C)(C)C)no1")
0.1
>>> experimental_result("CC[C@H]1CN(CCc2ccc(N3CCC(=O)NC3=O)c(F)c2)CCN1c1ccc(Nc2cc(-c3ccc([C@@H](C)NC(=O)c4nc(C(C)(C)C)no4)c(C)c3)ncn2)nc1")
0.0979
>>> experimental_result("C[C@@H](NC(=O)c1nc(C(C)(C)C)no1)c1ccc(-c2cc(Nc3ccc(N4CCN(CCc5ccc(N6CCC(=O)NC6=O)cc5)C[C@@H]4C)cn3)ncn2)cc1Cl")
0.053
>>> experimental_result("Cc1cc(-c2cc(Nc3ccc(N4CCN(CCc5ccc(N6CCC(=O)NC6=O)cc5)CC4(C)C)cn3)ncn2)ccc1[C@@H](C)NC(=O)c1nc(C(C)(C)C)no1")
0.0988
>>> experimental_result("COC[C@H]1CN(CCc2ccc(N3CCC(=O)NC3=O)cc2)CCN1c1ccc(Nc2cc(-c3ccc([C@@H](C)NC(=O)c4nc(C(C)(C)C)no4)c(C)c3)ncn2)nc1")
0.0986

----------
Biological target: His-tagged Cereblon/DDB1 complex (Homo sapiens (Human), UniProt Q96SW2)
Assay: Cereblon Binding Assay (AlphaLISA Human Cereblon Binding Kit, competition)
Conditions: 10 μM top dose, biotin-labeled ligand competition; read-out: CRBN IC50
pIC50: −log10 of the molar value.
Each entry below carries its reported pIC50.
QUANTITY_KIND: pIC50

>>> experimental_result("Cc1cc(-c2cc(Nc3ccc(N4CCN(CCc5ccc(N6CCC(=O)NC6=O)cc5)C[C@H]4C)cn3)ncn2)ccc1[C@@H](C)NC(=O)c1nc(C(C)(C)C)no1")
6.13
>>> experimental_result("Cc1cc(-c2cc(Nc3ccc(N4CCN(CCc5ccc(N6CCC(=O)NC6=O)cc5)CC4(C)C)cn3)ncn2)ccc1[C@@H](C)NC(=O)c1nc(C(C)(C)C)no1")
6.18
>>> experimental_result("C[C@@H](NC(=O)c1nc(C(C)(C)C)no1)c1ccc(-c2cc(Nc3ccc(N4CCN(CCc5ccc(N6CCC(=O)NC6=O)cc5)C[C@@H]4C)cn3)ncn2)cc1F")
5.41
>>> experimental_result("C[C@@H](NC(=O)c1nc(C(C)(C)C)no1)c1ccc(-c2cc(Nc3ccc(N4CCN(CCc5ccc(N6CCC(=O)NC6=O)cc5)C[C@@H]4C)cn3)ncn2)cc1Cl")
5.63
>>> experimental_result("Cc1cc(-c2cc(Nc3ccc(N4CCN(CCc5ccc(N6CCC(=O)NC6=O)c(F)c5)C[C@H]4C)cn3)ncn2)ccc1[C@@H](C)NC(=O)c1nc(C(C)(C)C)no1")
6.19
>>> experimental_result("Cc1cc(-c2cc(Nc3ccc(N4CCN(CCc5ccc(N6CCC(=O)NC6=O)cc5)CC4)cn3)ncn2)ccc1[C@@H](C)NC(=O)c1nc(C(C)(C)C)no1")
5.02
>>> experimental_result("Cc1cc(-c2cc(Nc3ccc(N4CCN(CCc5ccc(N6CCC(=O)NC6=O)cc5)C[C@@H]4C)cn3)ncn2)ccc1[C@@H](C)NC(=O)c1nc(C(C)(C)C)no1")
5.90
>>> experimental_result("Cc1cc(-c2cc(Nc3ccc(N4CCN(CCc5ccc(N6CCC(=O)NC6=O)cc5)C[C@@H]4C)cc3)ncn2)ccc1[C@@H](C)NC(=O)c1nc(C(C)(C)C)no1")
5.90
>>> experimental_result("CC[C@@H]1CN(CCc2ccc(N3CCC(=O)NC3=O)cc2)CCN1c1ccc(Nc2cc(-c3ccc([C@@H](C)NC(=O)c4nc(C(C)(C)C)no4)c(C)c3)ncn2)nc1")
5.47

----------
Listed below: pIC50 values for each entry.
Biological target: His-tagged Cereblon/DDB1 complex (Homo sapiens (Human), UniProt Q96SW2)
Experiment: Cereblon Binding Assay (AlphaLISA Human Cereblon Binding Kit, competition)
Details: 10 μM top dose, biotin-labeled ligand competition; read-out: CRBN IC50
pIC50: −log10 of the molar value.
QUANTITY_KIND: pIC50

>>> experimental_result("CC[C@H]1CN(CCc2ccc(N3CCC(=O)NC3=O)c(F)c2)CCN1c1ccc(Nc2cc(-c3ccc([C@@H](C)NC(=O)c4nc(C(C)(C)C)no4)c(C)c3)ncn2)nc1")
6.22
>>> experimental_result("CC[C@H]1CN(CCc2ccc(N3CCC(=O)NC3=O)cc2)CCN1c1ccc(Nc2cc(-c3ccc([C@@H](C)NC(=O)c4nc(C(C)(C)C)no4)c(C)c3)ncn2)nc1")
6.42
>>> experimental_result("Cc1cc(-c2cc(Nc3ccc(N4CCN(CCc5ccc(N6CCC(=O)NC6=O)cc5)CC4)cn3)ncn2)c(F)cc1[C@@H](C)NC(=O)c1nc(C(C)(C)C)no1")
5.70
